Hello, the source for this data is patent US7087616B2, in case you need it.

# EXPERIMENTAL DETAILS: logP determination by HPLC (EEC Directive 79/831 Annex V.A8)
# Type: physicochemical
# EXPERIMENTAL CONTEXT: pH 2.3; HPLC reversed-phase column (C 18), 43° C.; read-out: log P(pH 2.3)
Hi! Could you tag entries with chromatographic logP below 4 as yes (1), and those at or above as no (0)? Much appreciated.

1. CN(CC(=O)OCC(F)(F)C(F)(F)F)c1nccc(-n2cccn2)n1 = yes (1)

Problem: For the molecule "CN(CC(=O)OCC(F)(F)C(F)(F)C(F)(F)C(F)F)c1nccc(-n2cccn2)n1" , is chromatographic logP under 4?
yes (1)

Given the entry "CN(CC(=O)OCC(F)(F)C(F)(F)C(F)(F)F)c1nccc(-n2cc(Cl)cn2)n1" , would its reported chromatographic logP be below 4?
no (0)

I'd appreciate it if you could check whether CC(OC(=O)CSc1nccc(-n2cc(Br)cn2)n1)C(F)(F)C(F)(F)C(F)(F)F (centres unmarked) has chromatographic logP smaller than 4.
no (0)

Lab note: chromatographic logP threshold 4. Does this molecule come in strictly under it? "COc1cnn(-c2ccnc(SCC(=O)OCC(F)(F)C(F)(F)C(F)(F)F)n2)c1"
yes (1)

API: query returns whether the molecule falls strictly under 4 in chromatographic logP. Query: "O=C(CSc1nccc(-n2cc(Br)cn2)n1)OCC(F)(F)C(F)(F)C(F)(F)F"
no (0)

Field: below-cutoff. Rule: recorded chromatographic logP strictly less than 4. Subject: COc1cnn(-c2ccnc(SCC(=O)OC(C)C(F)(F)C(F)(F)C(F)(F)F)n2)c1 (centres unmarked)
no (0)

Is chromatographic logP of "O=C(CSc1nccc(-n2cccn2)n1)OCC(F)(F)C(F)(F)C(F)(F)C(F)F" strictly below 4?
yes (1)
